Ref: patent US20180215734A1

Biological target: AJK2(h) (Homo sapiens)
Sequence (O60674 whole entry): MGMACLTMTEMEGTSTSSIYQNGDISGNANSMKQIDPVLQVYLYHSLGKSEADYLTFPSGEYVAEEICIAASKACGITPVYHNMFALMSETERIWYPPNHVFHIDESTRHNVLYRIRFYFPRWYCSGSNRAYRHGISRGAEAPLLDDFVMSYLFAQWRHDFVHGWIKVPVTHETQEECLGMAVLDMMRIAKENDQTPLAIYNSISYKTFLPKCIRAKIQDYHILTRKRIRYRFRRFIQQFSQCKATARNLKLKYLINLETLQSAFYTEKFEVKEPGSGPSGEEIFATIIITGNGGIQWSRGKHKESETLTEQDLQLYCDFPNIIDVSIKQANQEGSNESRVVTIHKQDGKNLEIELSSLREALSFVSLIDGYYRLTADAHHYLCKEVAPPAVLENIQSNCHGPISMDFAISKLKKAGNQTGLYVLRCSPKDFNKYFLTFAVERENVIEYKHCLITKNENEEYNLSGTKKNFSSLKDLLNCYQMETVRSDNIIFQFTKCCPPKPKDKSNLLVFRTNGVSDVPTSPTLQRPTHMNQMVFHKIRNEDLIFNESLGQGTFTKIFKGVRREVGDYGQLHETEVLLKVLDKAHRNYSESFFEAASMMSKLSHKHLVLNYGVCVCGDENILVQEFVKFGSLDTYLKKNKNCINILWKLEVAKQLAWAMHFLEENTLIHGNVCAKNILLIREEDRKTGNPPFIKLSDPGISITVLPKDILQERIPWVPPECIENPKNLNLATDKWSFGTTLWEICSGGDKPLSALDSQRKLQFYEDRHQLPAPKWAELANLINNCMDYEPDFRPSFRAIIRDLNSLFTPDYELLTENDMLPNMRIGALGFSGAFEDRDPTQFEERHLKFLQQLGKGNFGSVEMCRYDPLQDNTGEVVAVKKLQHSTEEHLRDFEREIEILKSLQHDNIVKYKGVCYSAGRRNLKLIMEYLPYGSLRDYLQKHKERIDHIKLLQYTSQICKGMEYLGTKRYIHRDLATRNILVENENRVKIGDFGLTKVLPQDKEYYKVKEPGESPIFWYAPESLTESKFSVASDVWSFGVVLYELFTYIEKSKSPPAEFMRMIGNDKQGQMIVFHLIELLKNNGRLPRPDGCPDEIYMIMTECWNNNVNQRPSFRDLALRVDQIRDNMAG
experimental-endpoint: IC50

query: Can you share its IC50? I mean this compound: Cc1cc2c(F)c(Oc3ncnc(Nc4ccc(N5C[C@@H](C)N[C@@H](C)C5)cc4)c3C#N)cc(F)c2[nH]1 [Compound 19]
result: > 1 µM

* * *

Target: UniProtKB P11362
Experiment: Kinase assay, FGFR1(h)
Format: biochemical
Details: 1 μM
experimental-endpoint: inhibition at 1 µM (%)
Your answer is read as %, so omit the unit and give the number.

{"columns": ["molecule", "inhibition at 1 µM [%]"],
 "data": [
  ["Cc1cc2c(F)c(Oc3ncnc(Nc4ccc(N5CCN6CCCCC6C5)cc4)c3C#N)cc(F)c2[nH]1 (stereo not shown) [Compound 51]", 101],
  ["CNC(=O)c1ccc(Nc2ncnc(Oc3cc(F)c4[nH]c(C)cc4c3F)c2C#N)cc1 [Compound 37]", 99],
  ["Cc1cc2c(F)c(Oc3ncnc(Nc4ccc(N5CCN(CCO)CC5)cc4)c3C#N)cc(F)c2[nH]1 [Compound 31]", 102],
  ["Cc1cc2c(F)c(Oc3ncnc(Nc4ccc(N5CCC(N(C)C)CC5)cc4)c3C#N)ccc2[nH]1 [Compound 11]", 100],
  ["Cc1cc2c(F)c(Oc3ncnc(N4CCN(C)CC4)c3C#N)ccc2[nH]1 [Compound 3]", 1]
]}

query: Can you share its inhibition at 1 µM? I mean this molecule: Cc1cc2c(F)c(Oc3ncnc(Nc4ccccc4O)c3C#N)cc(F)c2[nH]1 [Compound 43]
result: 97

query: Then this molecule: Cc1cc2c(F)c(Oc3ncnc(Nc4ccc(C#N)cc4)c3C#N)cc(F)c2[nH]1 [Compound 55]
result: 55

query: Then this molecule: Cc1cc2c(F)c(Oc3ncnc(Nc4ccc(N5CCN[C@@H](C)C5)cc4)c3C#N)cc(F)c2[nH]1 [Compound 33]
result: 101

query: Then this molecule: Cc1cc2c(F)c(Oc3ncnc(Nc4ccc(N5CCN(CC(F)(F)F)CC5)cc4)c3C#N)cc(F)c2[nH]1 [Compound 20]
result: 70

query: Then this molecule: Cc1cc2c(F)c(Oc3ncnc(Nc4ccc(N5CCN(C)C(C)C5)cc4)c3C#N)cc(F)c2[nH]1 (stereo not shown) [Compound 46]
result: 101

query: Then this molecule: Cc1cc2c(F)c(Oc3ncnc(Nc4ccc(N5C[C@@H](C)N(C)[C@@H](C)C5)cc4)c3C#N)cc(F)c2[nH]1 [Compound 45]
result: 101

query: Then this molecule: Cc1cc2c(F)c(Oc3ncnc(Nc4ccc(-n5ccnc5)cc4)c3C#N)ccc2[nH]1 [Compound 12]
result: 56

query: Then this molecule: COc1cc(N2CCN(C)CC2)ccc1Nc1ncnc(Oc2ccc3[nH]c(C)cc3c2F)c1C#N [Compound 1]
result: 99

query: Then this molecule: CCOc1ccc(Nc2ncnc(Oc3ccc4[nH]c(C)cc4c3F)c2C#N)cc1 [Compound 29]
result: 91

query: Then this molecule: CCN1CCN(c2ccc(Nc3ncnc(Oc4cc(F)c5[nH]c(C)cc5c4F)c3C#N)cc2)CC1C (stereo not shown) [Compound 48]
result: 100

query: Then this molecule: CCN1CCN(c2cccc(Nc3ncnc(Oc4ccc5[nH]c(C)cc5c4F)c3C#N)c2)CC1 [Compound 22]
result: 100

query: Then this molecule: Cc1cc2c(F)c(Oc3ncnc(Nc4cccc(N5CCOCC5)c4)c3C#N)ccc2[nH]1 [Compound 21]
result: 100

* * *

Molecular target: UniProtKB P36888
Sequence (P36888 27-993): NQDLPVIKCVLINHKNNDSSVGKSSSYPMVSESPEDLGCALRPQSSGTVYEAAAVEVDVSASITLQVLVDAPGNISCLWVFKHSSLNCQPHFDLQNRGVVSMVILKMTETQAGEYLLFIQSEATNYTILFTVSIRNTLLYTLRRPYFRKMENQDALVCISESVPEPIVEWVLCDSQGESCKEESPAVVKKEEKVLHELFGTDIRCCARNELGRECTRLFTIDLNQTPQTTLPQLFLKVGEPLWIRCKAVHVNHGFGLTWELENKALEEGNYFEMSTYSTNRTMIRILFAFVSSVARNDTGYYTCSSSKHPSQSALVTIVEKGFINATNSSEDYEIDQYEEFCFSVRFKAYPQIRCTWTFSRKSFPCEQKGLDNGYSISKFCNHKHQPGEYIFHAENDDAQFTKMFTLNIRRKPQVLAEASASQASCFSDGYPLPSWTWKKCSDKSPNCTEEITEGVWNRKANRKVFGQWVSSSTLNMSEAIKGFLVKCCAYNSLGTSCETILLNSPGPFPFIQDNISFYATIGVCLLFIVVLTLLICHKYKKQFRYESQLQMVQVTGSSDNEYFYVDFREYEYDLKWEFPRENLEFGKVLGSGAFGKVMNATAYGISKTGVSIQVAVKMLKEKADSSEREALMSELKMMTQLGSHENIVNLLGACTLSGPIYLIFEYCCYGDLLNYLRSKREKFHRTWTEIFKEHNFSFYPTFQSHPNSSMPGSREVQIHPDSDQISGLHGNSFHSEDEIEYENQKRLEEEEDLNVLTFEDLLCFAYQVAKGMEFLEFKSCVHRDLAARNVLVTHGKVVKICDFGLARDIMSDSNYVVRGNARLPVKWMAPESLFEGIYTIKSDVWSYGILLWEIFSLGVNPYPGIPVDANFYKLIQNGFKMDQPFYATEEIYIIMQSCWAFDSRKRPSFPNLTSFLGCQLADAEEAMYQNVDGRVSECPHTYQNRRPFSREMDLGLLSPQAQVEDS
experimental-endpoint: IC50

query: Give the reported IC50 for Cc1cc2c(F)c(Oc3ncnc(Nc4ccc(N5C[C@@H](C)N[C@@H](C)C5)cc4)c3C#N)cc(F)c2[nH]1 (system: UniProtKB P36888).
result: > 1000 nM

* * *

System: Kato III
Test: Inhibition of proliferation (CellTiterblue, 72 hr), Kato III
Format: cell-based
Settings: Homo sapiens, KATO III, 72 h
Documented GI50 across a set of compounds
Your answer is read as nM, so omit the unit and give the number.

Please review the entries below; each comes with its answer.
{"columns": ["compound", "GI50, nM"],
 "data": [
  ["Cc1cc2c(F)c(Oc3ncnc(Nc4ccc(N5C[C@@H](C)N[C@@H](C)C5)cc4)c3C#N)ccc2[nH]1", 113],
  ["Cc1cc2c(F)c(Oc3ncnc(Nc4ccc(N5CCN(CCO)CC5)cc4)c3C#N)cc(F)c2[nH]1", 205],
  ["Cc1cc2c(F)c(Oc3ncnc(Nc4ccc(N5CCNCC5)cc4)c3C#N)cc(F)c2[nH]1", 137],
  ["Cc1cc2c(F)c(Oc3ncnc(Nc4ccc(N5CCN6CCCCC6C5)cc4)c3C#N)cc(F)c2[nH]1 (centres unmarked)", 208],
  ["CCN1CCN(c2ccc(Nc3ncnc(Oc4cc(F)c5[nH]c(C)cc5c4F)c3C#N)cc2)CC1C (centres unmarked)", 152],
  ["Cc1cc2c(F)c(Oc3ncnc(Nc4ccc(N5CCN(C)C(C)C5)cc4)c3C#N)cc(F)c2[nH]1 (centres unmarked)", 111]
]}

query: Give the reported GI50 for CCN1[C@H](C)CN(c2ccc(Nc3ncnc(Oc4cc(F)c5[nH]c(C)cc5c4F)c3C#N)cc2)C[C@@H]1C (system: Kato III).
result: 123

query: Then this compound: Cc1cc2c(F)c(Oc3ncnc(Nc4ccc(N5C[C@@H](C)N(C)[C@@H](C)C5)cc4)c3C#N)cc(F)c2[nH]1
result: 79

query: Then this compound: Cc1cc2c(F)c(Oc3ncnc(Nc4ccc(N5[C@H](C)CNC[C@@H]5C)cc4)c3C#N)cc(F)c2[nH]1
result: 86

query: Then this compound: Cc1cc2c(F)c(Oc3ncnc(Nc4ccc(N5CCN[C@@H](C)C5)cc4)c3C#N)cc(F)c2[nH]1
result: 88

* * *

Target: MEK1(h) (Homo sapiens)
pIC50: −log10 of the molar value.
experimental-endpoint: pIC50

query: Can you share its pIC50? I mean this compound: Cc1cc2c(F)c(Oc3ncnc(Nc4ccc(N5C[C@@H](C)N[C@@H](C)C5)cc4)c3C#N)cc(F)c2[nH]1
result: < 6.00

* * *

Assay: Cellular toxicity, HepG2 cell line
Format: cell-based
Details: human, HepG2 cells
experimental-endpoint: CC50 (µM)
Your answer is read as µM, so omit the unit and give the number.

query: Can you share its CC50? I mean this molecule: Cc1cc2c(F)c(Oc3ncnc(Nc4ccc(N5C[C@@H](C)N[C@@H](C)C5)cc4)c3C#N)cc(F)c2[nH]1 [Compound 19]
result: 1.9

* * *

Documented half-life across a set of compounds
Assay: Metabolic stability, mouse liver microsomes
Assay type: in vitro ADME

{"columns": ["compound", "half-life"],
 "data": [
  ["Cc1cc2c(F)c(Oc3ncnc(Nc4ccc(N5C[C@@H](C)N[C@@H](C)C5)cc4)c3C#N)cc(F)c2[nH]1 [Compound 19]", "> 60 min"]
]}

query: Can you share its half-life? I mean this compound: Cc1nc(Nc2ncc(C(=O)Nc3c(C)cccc3Cl)s2)cc(N2CCN(CCO)CC2)n1 [DASATINIB, dasatinib, reference compound]
result: 9.2 min

* * *

Target: UniProt P10632
Sequence (P10632 whole entry): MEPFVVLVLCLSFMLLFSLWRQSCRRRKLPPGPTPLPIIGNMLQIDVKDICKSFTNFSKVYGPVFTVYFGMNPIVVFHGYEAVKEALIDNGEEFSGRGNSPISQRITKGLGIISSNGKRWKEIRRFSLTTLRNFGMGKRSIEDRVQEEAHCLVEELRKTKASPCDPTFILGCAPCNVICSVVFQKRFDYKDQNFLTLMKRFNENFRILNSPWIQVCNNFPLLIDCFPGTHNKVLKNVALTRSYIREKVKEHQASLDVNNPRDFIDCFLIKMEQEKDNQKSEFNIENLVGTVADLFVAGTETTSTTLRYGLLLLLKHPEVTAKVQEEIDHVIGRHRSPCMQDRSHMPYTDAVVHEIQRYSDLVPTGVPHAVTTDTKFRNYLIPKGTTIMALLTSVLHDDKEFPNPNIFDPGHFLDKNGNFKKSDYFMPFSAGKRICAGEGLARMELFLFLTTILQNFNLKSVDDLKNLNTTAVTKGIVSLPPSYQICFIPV
experimental-endpoint: IC50 (µM)
Your answer is read as µM, so omit the unit and give the number.

query: Can you share its IC50? I mean this compound: Cc1cc2c(F)c(Oc3ncnc(Nc4ccc(N5C[C@@H](C)N[C@@H](C)C5)cc4)c3C#N)cc(F)c2[nH]1 [Compound 19]
result: 10.6

* * *

Molecular target: KDR(h) (Homo sapiens, UniProt P35968)
Sequence (P35968 20-1356): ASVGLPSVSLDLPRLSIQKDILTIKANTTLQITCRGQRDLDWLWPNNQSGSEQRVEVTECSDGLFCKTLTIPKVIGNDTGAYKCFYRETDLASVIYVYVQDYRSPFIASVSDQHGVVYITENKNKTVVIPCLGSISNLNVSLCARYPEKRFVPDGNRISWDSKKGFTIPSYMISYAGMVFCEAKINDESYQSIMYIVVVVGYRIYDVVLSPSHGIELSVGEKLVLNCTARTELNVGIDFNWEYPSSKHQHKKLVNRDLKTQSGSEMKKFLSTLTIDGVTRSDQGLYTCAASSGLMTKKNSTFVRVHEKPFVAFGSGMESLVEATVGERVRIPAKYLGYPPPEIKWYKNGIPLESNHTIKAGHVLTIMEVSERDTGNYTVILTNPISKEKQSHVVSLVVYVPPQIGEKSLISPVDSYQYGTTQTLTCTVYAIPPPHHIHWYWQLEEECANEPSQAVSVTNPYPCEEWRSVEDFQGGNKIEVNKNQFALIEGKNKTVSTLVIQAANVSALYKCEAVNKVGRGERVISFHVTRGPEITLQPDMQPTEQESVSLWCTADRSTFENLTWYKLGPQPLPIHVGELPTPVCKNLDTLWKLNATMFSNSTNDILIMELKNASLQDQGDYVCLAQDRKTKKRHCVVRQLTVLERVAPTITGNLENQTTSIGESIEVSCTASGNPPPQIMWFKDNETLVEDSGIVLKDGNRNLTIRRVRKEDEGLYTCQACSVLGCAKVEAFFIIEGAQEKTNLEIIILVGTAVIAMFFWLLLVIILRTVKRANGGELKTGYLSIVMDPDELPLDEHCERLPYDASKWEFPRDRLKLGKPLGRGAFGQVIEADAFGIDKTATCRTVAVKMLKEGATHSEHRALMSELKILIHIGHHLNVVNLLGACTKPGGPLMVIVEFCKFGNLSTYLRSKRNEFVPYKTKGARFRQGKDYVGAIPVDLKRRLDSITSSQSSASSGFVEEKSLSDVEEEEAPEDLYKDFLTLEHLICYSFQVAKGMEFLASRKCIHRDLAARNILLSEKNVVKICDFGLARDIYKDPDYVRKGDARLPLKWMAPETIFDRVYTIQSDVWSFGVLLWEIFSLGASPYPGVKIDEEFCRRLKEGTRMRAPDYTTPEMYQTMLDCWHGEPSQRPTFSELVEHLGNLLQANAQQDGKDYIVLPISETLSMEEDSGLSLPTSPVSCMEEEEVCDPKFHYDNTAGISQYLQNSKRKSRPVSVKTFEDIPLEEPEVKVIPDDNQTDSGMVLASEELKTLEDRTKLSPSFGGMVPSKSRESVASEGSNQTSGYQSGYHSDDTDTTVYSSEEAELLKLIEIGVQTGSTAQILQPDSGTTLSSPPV
Assay: Kinase assay, KDR(h)
Type: biochemical
experimental-endpoint: inhibition at 1 µM (%)
Your answer is read as %, so omit the unit and give the number.

query: Can you share its inhibition at 1 µM? I mean this compound: Cc1cc2c(F)c(Oc3ncnc(Nc4ccc(C#N)cc4)c3C#N)cc(F)c2[nH]1
result: 6

query: Then this compound: Cc1cc2c(F)c(Oc3ncnc(Nc4ccc(N5CCN(CC(F)(F)F)CC5)cc4)c3C#N)ccc2[nH]1
result: 92

query: Then this compound: CC(=O)N(C)c1ccc(Nc2ncnc(Oc3cc(F)c4[nH]c(C)cc4c3F)c2C#N)cc1
result: 69

query: Then this compound: Cc1cc2c(F)c(Oc3ncnc(Nc4ccc(N5CCN[C@@H](C)C5)cc4)c3C#N)cc(F)c2[nH]1
result: 89

query: Then this compound: Cc1cc2c(F)c(Oc3ncnc(Nc4ccc(N5C[C@@H](C)N[C@@H](C)C5)c(F)c4)c3C#N)ccc2[nH]1
result: 96

query: Then this compound: Cc1cc2c(F)c(Oc3ncnc(Nc4ccc(C(=O)N5CCN(C)CC5)cc4)c3C#N)ccc2[nH]1
result: 95

query: Then this compound: C=CC(=O)Nc1ccc(Nc2ncnc(Oc3cc(F)c4[nH]c(C)cc4c3F)c2C#N)cc1
result: 94

* * *

Molecular target: FGFR1(h) (Homo sapiens)
Sequence (P11362 22-822): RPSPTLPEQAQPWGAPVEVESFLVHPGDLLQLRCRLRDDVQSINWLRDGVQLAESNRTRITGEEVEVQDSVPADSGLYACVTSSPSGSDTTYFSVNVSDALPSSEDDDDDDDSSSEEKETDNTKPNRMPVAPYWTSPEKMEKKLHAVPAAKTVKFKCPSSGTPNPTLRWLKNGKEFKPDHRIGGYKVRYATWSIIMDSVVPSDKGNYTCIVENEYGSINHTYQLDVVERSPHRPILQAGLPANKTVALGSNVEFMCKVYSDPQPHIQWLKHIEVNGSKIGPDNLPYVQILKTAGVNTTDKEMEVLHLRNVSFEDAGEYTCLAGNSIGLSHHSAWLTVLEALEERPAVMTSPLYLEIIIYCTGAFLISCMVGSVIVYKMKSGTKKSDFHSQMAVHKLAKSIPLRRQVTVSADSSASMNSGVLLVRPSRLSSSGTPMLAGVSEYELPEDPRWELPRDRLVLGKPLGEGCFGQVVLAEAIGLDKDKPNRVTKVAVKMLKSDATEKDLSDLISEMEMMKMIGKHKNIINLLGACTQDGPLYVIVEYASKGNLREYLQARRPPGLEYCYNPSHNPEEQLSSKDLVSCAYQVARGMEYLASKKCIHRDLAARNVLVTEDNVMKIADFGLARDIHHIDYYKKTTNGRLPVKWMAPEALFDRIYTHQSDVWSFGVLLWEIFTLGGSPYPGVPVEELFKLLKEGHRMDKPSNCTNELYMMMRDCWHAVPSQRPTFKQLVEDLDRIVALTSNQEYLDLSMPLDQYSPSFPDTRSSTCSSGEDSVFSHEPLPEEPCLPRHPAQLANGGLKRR
experimental-endpoint: pIC50
Scale: pIC50 equals -log10([C]), with [C] in mol/L.

query: Can you share its pIC50? I mean this compound: Cc1cc2c(F)c(Oc3ncnc(Nc4ccc(N5C[C@@H](C)N[C@@H](C)C5)cc4)c3C#N)cc(F)c2[nH]1
result: 9.05
